Test system: Cam3.II^rev parasites (K13 wild-type)
Assay: microbe, parasite or virus in culture
Type: cell-based, P. falciparum
Conditions: Cam3.II^rev, 72 h; mean ± SEM; read-out: IC50
quantity_kind: IC50 (nM)
Value expressed in nM; do not type the unit.

(Q) Form field: reported IC50 of CC(=O)N1CCN(c2ccc(CN(C(=O)/C=C/c3ccc(C(C)(C)C)cc3)[C@@H](Cc3ccccc3)C(=O)N3CCN(Cc4ccc(C#N)cc4)CC3)cc2)CC1 [ACT-451840]
(A) 2.1

---

Tested on: V1/S parasites (K13 wild-type)
Assay: microbe, parasite or virus in culture
Type: cell-based, P. falciparum
Conditions: V1/S, 72 h; mean ± SEM; read-out: IC50
quantity_kind: pIC50
# pIC50 = -log10(concentration in molar units)

(Q) Record lookup: for V1/S parasites (K13 wild-type), what pIC50 belongs to CC(=O)N1CCN(c2ccc(CN(C(=O)/C=C/c3ccc(C(C)(C)C)cc3)[C@@H](Cc3ccccc3)C(=O)N3CCN(Cc4ccc(C#N)cc4)CC3)cc2)CC1 [ACT-451840] ?
(A) 9.68

---

System: P. falciparum W2 (Vietnam)
Assay: [3H]-hypoxanthine incorporation assay, W2
Assay type: cell-based, Plasmodium falciparum
Settings: Plasmodium falciparum, W2, read-out: 50% inhibitory concentration (IC50)
quantity_kind: IC50 (nM)
Value expressed in nM; do not type the unit.

(Q) Form field: reported IC50 of CCN(CC)CCCC(C)Nc1ccnc2cc(Cl)ccc12 (stereo not shown) [Chloroquine, chloroquine]
(A) 326

---

System: P. falciparum V1/S (Vietnam)
Experiment: [3H]-hypoxanthine incorporation assay, V1/S
Format: cell-based, Plasmodium falciparum
Conditions: read-out: 50% inhibitory concentration (IC50); V1/S, resistance CQ, SUL, PYR, CYC; mean ± SD
quantity_kind: IC50

(Q) Form field: reported IC50 of CC(=O)N1CCN(c2ccc(CN(C(=O)/C=C/c3ccc(C(C)(C)C)cc3)[C@@H](Cc3ccccc3)C(=O)N3CCN(Cc4ccc(C#N)cc4)CC3)cc2)CC1 [ACT-451840]
(A) 0.3 nM

---

Test system: V1/S^C580Y parasites
Assay: microbe, parasite or virus in culture
Type: cell-based, P. falciparum
Conditions: V1/S^C580Y, 72 h; mean ± SEM; read-out: IC50
quantity_kind: pIC50
# pIC50 = -log10(concentration in molar units)

(Q) Form field: reported pIC50 of CC(=O)N1CCN(c2ccc(CN(C(=O)/C=C/c3ccc(C(C)(C)C)cc3)[C@@H](Cc3ccccc3)C(=O)N3CCN(Cc4ccc(C#N)cc4)CC3)cc2)CC1
(A) 9.72

---

System: P. falciparum K1 (Thailand)
Experiment: [3H]-hypoxanthine incorporation assay, K1
Assay type: cell-based, Plasmodium falciparum
Conditions: read-out: 50% inhibitory concentration (IC50); K1, resistance CQ, SUL, PYR, CYC; mean ± SD
quantity_kind: pIC50
# pIC50 = -log10(concentration in molar units)

(Q) Record lookup: for P. falciparum K1 (Thailand), what pIC50 belongs to CC(=O)N1CCN(c2ccc(CN(C(=O)/C=C/c3ccc(C(C)(C)C)cc3)[C@@H](Cc3ccccc3)C(=O)N3CCN(Cc4ccc(C#N)cc4)CC3)cc2)CC1 ?
(A) 9.52

---

Test system: P. vivax clinical isolates (Papua, Indonesia)
Test: Ex vivo drug susceptibility, P. vivax clinical isolates
Assay type: cell-based, Plasmodium vivax
Conditions: Plasmodium vivax; P. vivax clinical isolates, n = 34 (open symbols); read-out: median IC50
molecules and their reported IC50
Value expressed in nM; do not type the unit.

molecule: CCN(CC)Cc1cc(Nc2ccnc3cc(Cl)ccc23)ccc1O [Amodiaquine]
quantity_kind: IC50
endpoint_result: 12.3
--
molecule: C[C@H]1[C@H](OC(=O)CCC(=O)O)O[C@@H]2O[C@@]3(C)CC[C@H]4[C@H](C)CC[C@@H]1[C@@]24OO3 [Artesunate, artesunate]
quantity_kind: IC50
endpoint_result: 2.9
--
molecule: Clc1ccc2c(N3CCN(CCCN4CCN(c5ccnc6cc(Cl)ccc56)CC4)CC3)ccnc2c1 [Piperaquine]
quantity_kind: IC50
endpoint_result: 14.8

(Q) Record lookup: for P. vivax clinical isolates (Papua, Indonesia), what IC50 belongs to OC(c1cc(C(F)(F)F)nc2c(C(F)(F)F)cccc12)C1CCCCN1 (stereo not shown) [Mefloquine, mefloquine] ?
(A) 15.2

Where do the numbers come from? From paper PMC5049785.
